Attribute: Kd
# targetUnderTest: T1, human vitronectin (human, UniProt P04004 20-478)
# T1 construct: Coated on ELISA plates at 100 nM; also called Vn
# T1 sequence (P04004 20-478 limits assumed): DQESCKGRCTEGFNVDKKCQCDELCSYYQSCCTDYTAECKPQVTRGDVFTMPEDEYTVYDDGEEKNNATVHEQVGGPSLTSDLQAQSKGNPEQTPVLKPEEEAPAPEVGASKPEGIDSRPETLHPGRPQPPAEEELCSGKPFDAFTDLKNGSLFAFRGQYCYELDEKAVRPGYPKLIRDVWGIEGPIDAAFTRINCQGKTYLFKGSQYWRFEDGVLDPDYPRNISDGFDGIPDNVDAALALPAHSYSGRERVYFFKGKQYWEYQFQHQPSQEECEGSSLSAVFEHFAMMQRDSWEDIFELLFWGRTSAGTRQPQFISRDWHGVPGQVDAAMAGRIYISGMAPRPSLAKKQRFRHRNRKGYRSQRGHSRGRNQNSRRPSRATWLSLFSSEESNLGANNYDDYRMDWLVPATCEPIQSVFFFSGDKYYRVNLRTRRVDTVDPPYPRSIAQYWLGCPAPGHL
# measurementDescription: ELISA; ECM protein coated at 100 nM, soluble protein 0-100 nM, one-site fit
testReadout: Kd

- binder: "PDGF-BB (murine wild-type platelet-derived growth factor-BB) (ligand, UniProt P31240 82-190, looked up, also called wild-type PDGF-BB) SLGSLAAAEPAVIAECKTRTEVFQISRNLIDRTNANFLVWPPCVEVQRCSGCCNNRNVQCRASQVQMRPVQVRKIEIVRKKPIFKKATVTLEDHLACKCETIVTPRPVT"
  val: "32.1 nM"
- binder: "IL-1Ra/PIGF123-141 (other) MNHKVHHHHHHMRPSGKRPCKMQAFRIWDTNQKTFYLRNNQLIAGYLQGPNIKLEEKIDMVPIDLHSVFLGIHGGKLCLSCAKSGDDIKLQLEEVNITDLSKNKEEDKRFTFIRSEKGPTTSFESAACPGWFLCTTLEADRPVSLTNTPEEPLIVTKFYFQEDQRRRPKGRGKRRREKQRPTD"
  val: "0.7 nM"
- binder: "IL-1Ra (murine wild-type interleukin-1 receptor antagonist) (ligand, also called wild-type IL-1Ra; IL-1 receptor antagonist) MRPSGKRPCKMQAFRIWDTNQKTFYLRNNQLIAGYLQGPNIKLEEKIDMVPIDLHSVFLGIHGGKLCLSCAKSGDDIKLQLEEVNITDLSKNKEEDKRFTFIRSEKGPTTSFESAACPGWFLCTTLEADRPVSLTNTPEEPLIVTKFYFQEDQ"
  val: "73.2 nM"

The reported measurements were obtained from patent US20230272045A1.
